These entries and their values trace back to patent US20240182561A1.

molecular target: T1, nanodisc embedded human CACNG1 expressed with a C-terminal PADRE-Flag-His tag (human, UniProt Q06432 1-222); assay: SPR, anti-His-captured nanodisc, 25 C
T1 construct: Captured on an anti-His Biacore surface; also called human CACNG1 nanodisc; CACNG1 nanodisc; not shown: C-terminal tag
T1 sequence (Q06432 whole entry): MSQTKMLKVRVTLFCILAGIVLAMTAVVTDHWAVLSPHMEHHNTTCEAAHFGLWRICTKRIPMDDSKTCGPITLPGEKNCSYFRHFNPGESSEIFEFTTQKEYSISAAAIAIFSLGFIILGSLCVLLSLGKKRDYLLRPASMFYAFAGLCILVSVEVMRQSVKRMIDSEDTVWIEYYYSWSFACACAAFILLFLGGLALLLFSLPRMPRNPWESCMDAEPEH
observed_property: Kd (nM)
Provide the reading as a plain figure in nM.

* H2aM31941N (antibody, mouse IgG1, kappa, V domains shown, Both names are treated as one molecule; also called H1M31941N; lot H1M31941N-L1) VH: QVQLVQSGAEVKKPGASVKVSCKASGYAFTTYGITWVRQAPGQGLEWMGWISAYNGNTNYAEKVQGRFTMTTDTSTNTAYMELRSLRSDDTAVYFCARKGHYGSGTYYNPFGFDFWGQGTMVTVSS VL: EIMLMQSPGTLSLSPGERATLSCRASQSVSSSYLAWYQQKPGQAPRLLIYGASSRATDIPDRFSGSGSGTDFTLTISRLEPEDFAVYFCQQYYGSPWTFGQGTKVEIKR | 1.19
* H2aM31944N (antibody, mouse IgG2a, kappa, V domains shown, mIgG2a; also called CACNG1 mIgG2a antibody) VH: QVQLVESGGGVVQPGRSLRLSCEASGITFRNYGMHWVRQAPGKGLEWVAVMWYDGSNKYYADSVKGRFTISRDNSKNTVYLQMNSLRAEDTAVYYCARRGHIATAAPFDYWGQGTLVTVSS VL: DIQMTQSPSSLSASVGDRVTISCRASQSISSYLNWYQQKPGKAPKVLMYAASSLQSGVPSRFSGSGSGTDFTLTISSLQPEDFATYYCQQSYSTPPITFGQGTRLEIKR | 17.1

# context switch: different binder, same Kd
Indicate the recorded Kd value for this binder: REGN7660 (antibody, human IgG4 S228P, kappa, V domains shown, hIgG4) VH: EVQLVESGGGLVQPGGSLKLSCTASGLTLSDSAMHWVRQASGKGLEWVGRIRNKANRYATEYAASVKGRFTISRDDSKNTAYLQMNSLKTEDTAVYYCTRNWKIFLFDYWGQGTLVTVSS VL: EIVLTQSPGTLTLSPGERATLSCRASQSVGSKYLAWFQQKRGQAPRLLIYGASSRTSGIPDRISGSGSGTDFTLTISRLEPEDFAVYYCQQYGSSPWTFGQGTKVEIKR
12.6
